Biological target: Cannabinoid receptor 2 (Homo sapiens)
Sequence (P34972 whole entry): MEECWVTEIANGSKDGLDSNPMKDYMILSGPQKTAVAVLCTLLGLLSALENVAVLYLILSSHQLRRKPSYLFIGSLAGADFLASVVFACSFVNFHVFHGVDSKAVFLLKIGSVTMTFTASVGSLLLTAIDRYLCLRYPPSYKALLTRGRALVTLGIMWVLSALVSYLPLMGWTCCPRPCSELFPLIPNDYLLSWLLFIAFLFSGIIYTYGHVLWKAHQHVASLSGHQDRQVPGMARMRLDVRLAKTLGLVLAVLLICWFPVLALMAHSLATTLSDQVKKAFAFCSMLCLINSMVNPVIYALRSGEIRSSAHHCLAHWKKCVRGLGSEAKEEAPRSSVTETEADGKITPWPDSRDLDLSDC
Assay: Displacement of [3H]CP-55940 from human CB2 receptor expressed in CHO cells
Type: cell-based
quantity-name: pKi
Units for pKi: none; it is -log10 of a concentration expressed in mol/L.

Worked examples follow.
>  <compound>
COc1ccc([C@@H]2[C@@H](CCCc3cccnc3)C(=O)N2c2ccccc2)cc1

>  <value-observed>
5.96

$$$$
>  <compound>
COc1ccc([C@@H]2[C@@H](Cc3cc4ccccc4o3)C(=O)N2c2ccccc2)cc1

>  <value-observed>
6.71

$$$$
>  <compound>
CC(=O)SC(CCc1ccccc1)[C@H]1C(=O)N(c2ccc(F)cc2)[C@@H]1c1ccc(O)cc1 (stereo not given in full)

>  <value-observed>
6.55

$$$$

Given COc1ccc(C2C(CCS(=O)(=O)c3ccccc3)C(=O)N2c2ccccc2)cc1 (stereo not given) , state its recorded pKi.
5.91

* * *

Target: Cannabinoid receptor 1 (Homo sapiens, UniProt P21554)
Sequence (P21554 whole entry): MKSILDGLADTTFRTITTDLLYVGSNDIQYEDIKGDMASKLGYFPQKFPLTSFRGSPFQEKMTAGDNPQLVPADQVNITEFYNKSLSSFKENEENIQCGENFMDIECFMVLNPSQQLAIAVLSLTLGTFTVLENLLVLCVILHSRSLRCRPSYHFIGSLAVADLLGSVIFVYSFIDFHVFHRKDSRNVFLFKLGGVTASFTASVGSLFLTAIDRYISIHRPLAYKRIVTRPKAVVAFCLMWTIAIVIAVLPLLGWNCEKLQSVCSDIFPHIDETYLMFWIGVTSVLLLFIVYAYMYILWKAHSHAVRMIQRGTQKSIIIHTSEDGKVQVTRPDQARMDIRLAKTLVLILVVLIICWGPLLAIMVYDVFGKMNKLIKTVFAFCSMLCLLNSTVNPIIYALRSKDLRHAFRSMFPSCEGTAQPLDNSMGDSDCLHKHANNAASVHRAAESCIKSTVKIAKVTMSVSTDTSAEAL
Assay: biochemical
Assay type: cell-based, HEK293
Description: Displacement of [3H]CP-55940 from human CB1 receptor expressed in HEK293 cells
Recorded Ki by entry
Could you give me the number in nM? Just the number is fine.

Worked examples follow.
>  <compound>
CC(=O)SC(CCc1ccccc1)[C@H]1C(=O)N(c2ccc(F)cc2)[C@@H]1c1ccc(O)cc1 (stereo not given in full)

>  <Ki (nM)>
52.8

$$$$
>  <compound>
O=C1[C@@H](CCC(O)c2ccc(F)cc2)[C@H](c2ccc(O)cc2)N1c1ccc(F)cc1 (stereo not given in full)

>  <Ki (nM)>
301

$$$$
>  <compound>
COc1ccc([C@@H]2[C@@H](CCCc3cccnc3)C(=O)N2c2ccccc2)cc1

>  <Ki (nM)>
244

$$$$
>  <compound>
COc1ccc(C2C(CCS(=O)(=O)c3ccccc3)C(=O)N2c2ccccc2)cc1 (stereo not given)

>  <Ki (nM)>
451

$$$$

Then this compound:
Given `COc1ccc([C@@H]2[C@@H](Cc3cc4ccccc4o3)C(=O)N2c2ccccc2)cc1` , state its recorded Ki.
839

* * *

Target: Cannabinoid receptor 1 (Homo sapiens, UniProt P21554)
quantity-name: pKi
Units for pKi: none; it is -log10 of a concentration expressed in mol/L.

Checklist item: pKi tested on Cannabinoid receptor 1 (Homo sapiens, UniProt P21554), entry `O=C(NN1CCCCC1)c1nn(-c2ccc(Cl)cc2Cl)c(-c2ccc(-c3cccnc3)cc2)c1CO` , value?
8.24

Source listed as ChEMBL document CHEMBL1144779.
